The reported numbers originate from ChEMBL document CHEMBL4610079.

# System: PBMC
# measurement.notes: Antiinflammatory activity in LPS-induced human PBMC cells assessed as IL-6 release at 100 uM after 24 hrs by luminex based bead assay relative to control
# Assay type: functional
I'd appreciate it if you marked entries 1 (yes) when Activity is lower than 30% and 0 (no) when it is not.

>>> df
                                   molecule  classification
0   COc1cc(-c2cc(=O)c3cc(OC)c(O)cc3o2)ccc1O          0 (no)
1  COc1cc2c(c(O)c1CC=C(C)C)C(=O)C[C@@H](c1ccc(O)cc1)O2         1 (yes)
2  C=C(C)C(O)Cc1c(O)cc2oc(-c3ccc(O)cc3)cc(=O)c2c1O (stereo unspecified)          0 (no)

Ask: Lab note: confirm whether the reported Activity for this molecule is below 30%, equality not counting. molecule: CC1(C)C=Cc2c(cc(O)c3c(=O)cc(-c4ccc(O)cc4)oc23)O1
Result: 1 (yes)

Ask: Lab note: confirm whether the reported Activity for this molecule is below 30%, equality not counting. molecule: COc1c2c(c(/C=C\C(C)(C)O)c3oc(-c4ccccc4)cc(=O)c13)OC(C)(C)C=C2
Result: 1 (yes)

Ask: Lab note: confirm whether the reported Activity for this molecule is below 30%, equality not counting. molecule: C=C(C)/C=C/c1c2c(c(O)c3c(=O)cc(-c4ccccc4)oc13)C=CC(C)(C)O2
Result: 0 (no)

Ask: Lab note: confirm whether the reported Activity for this molecule is below 30%, equality not counting. molecule: CC(C)=CCc1c(O)cc2oc(-c3ccc(O)cc3)cc(=O)c2c1O
Result: 1 (yes)

Ask: Lab note: confirm whether the reported Activity for this molecule is below 30%, equality not counting. molecule: C=C(C)C(O)Cc1c(OC)cc2c(c1O)C(=O)C[C@@H](c1ccc(O)cc1)O2 (stereo partly specified)
Result: 1 (yes)

Ask: Lab note: confirm whether the reported Activity for this molecule is below 30%, equality not counting. molecule: COc1cc(O)c2c(=O)cc(-c3ccc(O)c(OC)c3)oc2c1 [VELUTIN]
Result: 1 (yes)

Ask: Lab note: confirm whether the reported Activity for this molecule is below 30%, equality not counting. molecule: COc1cc([C@@H]2CC(=O)c3cc(OC)c(O)cc3O2)ccc1O
Result: 0 (no)

Ask: Lab note: confirm whether the reported Activity for this molecule is below 30%, equality not counting. molecule: COc1c(O)cc2oc(-c3ccc(O)c(O)c3)c(O[C@@H]3O[C@@H](C)[C@H](O)[C@@H](O)[C@H]3O)c(=O)c2c1O
Result: 1 (yes)

====

# Tested on: PBMC
# measurement.notes: Antiinflammatory activity in LPS-induced human PBMC cells assessed as IL-2 release at 100 uM after 24 hrs by luminex based bead assay relative to control
# Type: functional
reported.property: Activity (%)
Number only, in %; omit the unit.

In [3]: df
Out[3]:
                                   compound  reported_property  test_result
0  CC(C)Cc1ccc(C(C)C(=O)O)cc1 (stereo unspecified)           Activity        80.33
1  COc1c2c(c(/C=C/C(C)(C)OC)c3oc(-c4ccccc4)cc(=O)c13)OC(C)(C)C=C2           Activity         57.6
2   COc1cc(-c2cc(=O)c3cc(OC)c(O)cc3o2)ccc1O           Activity        17.72
3  C=C(C)/C=C/c1c2c(c(O)c3c(=O)cc(-c4ccccc4)oc13)C=CC(C)(C)O2           Activity        17.72
4  CC(=O)OCC1(C)C=Cc2c(cc(O)c3c2O[C@H](c2ccccc2)CC3=O)O1 (stereo partly specified)           Activity        17.72

Form field Activity, entry COc1cc(-c2cc(=O)c3ccc(O)cc3o2)ccc1O : 57.64
